Entries and their EC90
System: HIV-1
experimentNotes: Inhibition of infecting HIV production in MT4 cells (end point titration)
Assay type: cell-based
protocolConditions: MT4 cells; compound alone; Table 2; read-out: ED90 (the source's name)

Here are 7 compounds together with their reported answers.
OC[C@@H]1CC[C@H](n2cnc3c(O)ncnc32)O1 [ddIno, 2',3'-didesoxy-inosine, reference compound]	11 µM
CCCCCC[C@H]([C@H](C)O)n1cnc2c(N)ncnc21 (relative stereo) [EHNA, 9-(erythro-2-hydroxy-3-nonyl) adenine]	> 10 µM
CCCCCC[C@H]([C@H](C)O)n1cnc2c(N)cccc21 (relative stereo)	> 5 µM
CCCCCC[C@H]([C@H](C)O)n1ccc2c(N)ncnc21 (relative stereo)	> 5 µM
OC[C@H]1O[C@@H](n2cnc3c2N=CNC[C@H]3O)[C@H](O)[C@@H]1O	> 250 µM
Nc1ncnc2c1ncn2[C@H]1CC[C@@H](CO)O1	10 µM
CCCCCC[C@H]([C@H](C)O)n1cnc2c(N)ccnc21 (relative stereo)	20 µM

Could you now consider this next compound?
# lookup: HIV-1 EC90, key = CCCCCC[C@H]([C@H](C)O)n1cnc2c(N)nccc21 (relative stereo) > 10 µM
